- Tested on: KM12
- experimentDescription: NCI tumour cell line growth inhibition, 48 h
Activity calls are given as the source filed them. Cut-off read from the data, not from the text of the source: active = GI50 up to about 1.1 µM and inactive = higher.
Write down one outcome, taken from yes = active, no = inactive

See these solved cases before continuing.
compound: CO/N=C(\C(=O)Nc1cncs1)c1csc(NC(c2ccccc2)(c2ccccc2)c2ccccc2)n1
group: no

compound: COC(=O)C1=C(C)NC(C)=C(C(=O)OC)C1c1cccc(N=O)c1
group: no

compound: CCOC(=O)CC1c2ccc(O)cc2OC(=O)C1c1ccc([N+](=O)[O-])cc1 (centres undefined)
group: no

compound: OC1C=C2C3CN(Cc4cc5c(cc43)OCO5)[C@H]2C[C@@H]1O (some centres undefined)
group: no

Could you kindly confirm the outcome this assay logged for C[C@H](OCc1ccccc1)C(=O)N1CCS(=O)(=O)N2CCC[C@@H]2C1=O ? no

Let us now turn to CN(C)CCC(=O)N1C/C(=C\c2ccc(Cl)c(Cl)c2)C(=O)/C(=C/c2ccc(Cl)c(Cl)c2)C1 yes

====

# reported GI50; entries follow
- System: IGROV-1
- experimentDescription: NCI tumour cell line growth inhibition, 48 h
Activity calls are given as the source filed them. Cut-off read from the data, not from the text of the source: active = GI50 up to about 1.1 µM and inactive = higher.

The following compounds have reported results that may help.
compound: CC(C)(C)OCC1NC(=O)[C@@H]2Cc3c([nH]c4ccccc34)C(c3ccccc3)N2C1=O (stereo not given in full)
GI50: > 50 µM (inactive)

compound: CNC(=O)OC(C)CN1c2ccccc2Sc2ccccc21 (stereo not given)
GI50: 59.3 µM (inactive)

compound: Cc1c(C)c2c(c(N)c1C#N)C(=O)N(Nc1ccccc1)C2=O
GI50: 42.7 µM (inactive)

compound: CC1=C(C#N)C23C(=O)c4ccccc4C(=O)C2=C(O)C=CC3(O)N1 (stereo not given)
GI50: 2.38 µM (inactive)

compound: COC(=O)C(CNC(=O)/C=C/c1ccc(OC)c(OC)c1)NC(=O)/C=C/c1ccc(OC)c(OC)c1 (stereo not given)
GI50: > 100 µM (inactive)

From here, focus on the item given below.
Consider the compound shown here: Cc1cc(C)nc(NS(=O)(=O)c2ccc(Nc3c4ccccc4nc4ccc(C(=O)Nc5ccc(S(=O)(=O)N=C(N)N)cc5)cc34)cc2)n1 What is its recorded GI50? > 100 µM (inactive)

====

- System: IGROV-1
- experimentDescription: NCI tumour cell line growth inhibition, 48 h
Active and inactive are the calls of the source. Cut-off read from the data, not from the text of the source: active = GI50 up to about 1.1 µM and inactive = higher.
Write down one outcome, taken from 1 for active, -1 for inactive

See these solved cases before continuing.
compound: O=C(Nc1ccc2[nH]c(C(=O)N3CC(CCl)c4c3cc([N+](=O)[O-])c3ccccc43)cc2c1)c1cc2ccccc2o1 (stereo unspecified)
group: -1
//
compound: C(=N\c1ccc(-c2nc3ccccc3[nH]2)cc1)/c1ccco1
group: -1
//
compound: Cc1ccc(C)c2c1C/C(=C\c1ccccc1C(=O)O)C2=O
group: -1

Could you kindly confirm the outcome this assay logged for CCN(CC)CCC(=O)c1ccc(C)cc1 ? -1

Let us now turn to COC(=O)C(C)Sc1nc2cc(Cl)ccc2s1 (stereo unspecified) -1

Let us now turn to CCOC(=O)C(C(=O)OCC)=C1NC2(c3ccccc3Nc3ccccc32)C(C#N)S1 (stereo unspecified) -1

Let us now turn to Cn1c(-c2ccccc2)cc(-c2cccs2)c1-c1cccs1 -1

Let us now turn to COc1cc2ccc(CC(=O)O)cc2cc1OC -1

====

# reported GI50; entries follow
- Tested on: NCI-H460
- experimentDescription: NCI tumour cell line growth inhibition, 48 h
Activity calls are given as the source filed them. Rule as the data show it: active = GI50 up to about 1.1 µM and inactive = higher.

The following molecules have reported results that may help.
molecule: COc1ccc(/C=N/c2ccc(-c3nc4ccccc4[nH]3)cc2)cc1OC
GI50: > 100 µM (inactive)

molecule: Cc1cn2cc(-c3cccs3)nc2s1
GI50: > 100 µM (inactive)

molecule: N#Cc1cc(-c2nc3c(F)cccc3s2)ccc1N
GI50: 20.5 µM (inactive)

molecule: O=C1Oc2ccccc2C(=O)/C1=C/N1C(=O)/C(=C/c2ccc([N+](=O)[O-])cc2)SC1=S
GI50: 18.5 µM (inactive)

molecule: O=C(O)CN(c1ccccc1)S(=O)(=O)c1ccc(Cl)cc1
GI50: > 100 µM (inactive)

Query GI50 on NCI-H460 for CC(=O)N(C(=O)CC(=O)NNCc1ccccc1Cl)c1ccc(Cl)cc1 > 10 µM (inactive)

Let us now turn to Nc1nc(Cl)cc(NCC2(CO)CC(=O)C2)n1 > 100 µM (inactive)

====

# reported GI50; entries follow
- Tested on: HOP-18
- experimentDescription: NCI tumour cell line growth inhibition, 48 h
Active and inactive are the calls of the source. Cut-off read from the data, not from the text of the source: active = GI50 up to about 1.1 µM and inactive = higher.

The following compounds have reported results that may help.
compound: NC(=O)c1cc(C2OC(CO)C(O)C2O)nn1-c1ccc([N+](=O)[O-])cc1 (stereo not drawn)
GI50: > 100 µM (inactive)
//
compound: CCOC(=O)NC(=O)c1cn(CCN2CCN(C(=O)NCCCCCCNC(=O)N3CCN(CCn4cc(C(=O)NC(=O)OCC)c(=O)n(CCN(CC)CC)c4=O)CC3)CC2)c(=O)n(CCC(CC)CC)c1=O
GI50: > 100 µM (inactive)
//
compound: Cn1c2c(cc(-c3ccccc3)c1=O)COc1ccccc1-2
GI50: > 100 µM (inactive)

Consider the compound shown here: C(=N\CC/N=C/c1cccc2ccccc12)/c1cccc2ccccc12 What is its recorded GI50? > 100 µM (inactive)

Let us now turn to COC(=O)C1=C(O)c2cc(OC)c(OC)c(OC)c2C(c2ccc3c(c2)OCO3)[C@@H]1C(=O)OC (stereo partly drawn) 23.1 µM (inactive)

Let us now turn to CCOc1ccccc1NC(=O)C1=C(C)NC(C)=C(C(=O)Nc2ccccc2OCC)C1c1ccc([N+](=O)[O-])cc1 > 100 µM (inactive)

Let us now turn to Cc1nc2c(nc1C)C(=O)c1ccccc1C2=O 3.29 µM (inactive)

Let us now turn to Cc1ccccc1N1C(=O)/C(=C/c2ccc(N(CCC#N)CCC#N)cc2)N=C1c1cc([N+](=O)[O-])ccc1Cl > 100 µM (inactive)

====

- Test system: EKVX
- experimentDescription: NCI tumour cell line growth inhibition, 48 h
Calls of active or inactive are those of the source. Rule as the data show it: active = GI50 up to about 1.1 µM and inactive = higher.
# reported GI50; entries follow

The following compounds have reported results that may help.
compound: CCCOc1ccc(-c2nc(-c3ccc(/N=C/c4ccc(N(CCOS(C)(=O)=O)CCOS(C)(=O)=O)cc4C)cc3)cs2)cc1
GI50: 17.6 µM (inactive)
//
compound: CC(=O)c1[nH]c(NCc2ccccc2)c(C(=S)Nc2ccccc2)c1N
GI50: 27.1 µM (inactive)
//
compound: CCN(C1=CC(=O)NC2CCCCN12)c1ccccc1 (stereo not given)
GI50: > 100 µM (inactive)
//
compound: COc1ccc2[nH]c(=O)cc(C)c2c1[N+](=O)[O-]
GI50: 82 µM (inactive)

From here, focus on the item given below.
Consider the compound shown here: CN(Cc1cnc2nc(N)nc(N)c2n1)c1ccc(C(=O)NC(CCC(=O)NC(P(=O)(O)O)P(=O)(O)O)C(=O)O)cc1 (stereo not given) What is its recorded GI50? > 100 µM (inactive)

====

- Tested on: NCI-H460
- experimentDescription: NCI tumour cell line growth inhibition, 48 h
Active and inactive are the calls of the source. No stated cut-off is given here; in the data, active = GI50 up to about 1.1 µM and inactive = higher.
# reported GI50; entries follow

The following compounds have reported results that may help.
compound: COc1cc2c3cc1Oc1c(O)c(OC)cc4c1[C@H](Cc1ccc(cc1)Oc1cc(ccc1O)C[C@H]3N(C)CC2)N(C)CC4
metric: GI50
reported: 8.99 µM (inactive)

compound: CN(C)c1ccc2oc(=O)c3ccccc3c2c1
metric: GI50
reported: > 100 µM (inactive)

compound: c1ccc(Sc2nc(Sc3ccccc3)nc(Sc3ccccc3)n2)cc1
metric: GI50
reported: 47.6 µM (inactive)

compound: CSc1ncc2c(C#N)c3[nH]c4ccccc4n3c(=O)c2n1
metric: GI50
reported: 13.3 µM (inactive)

compound: CCN1C(=O)C/C(=C\C(C)=O)Nc2ccccc21
metric: GI50
reported: > 100 µM (inactive)

compound: CN(C)c1ccc(/C=N\NC(=O)CSCC(=O)N/N=C/c2ccc(N(C)C)cc2)cc1
metric: GI50
reported: 33.2 µM (inactive)

compound: CC1(C)CC[C@]2(C(=O)O)[C@H](O)C[C@]3(C)C(=CC[C@@H]4[C@@]5(C)CC[C@H](OC6OC(C(=O)O)C(O)C(O)C6O)C(C)(C)[C@@H]5CC[C@]43C)[C@@H]2C1 (stereo partly specified)
metric: GI50
reported: > 100 µM (inactive)

compound: Cn1nc(-c2ccccc2)c(C(=O)/C=C/c2ccccc2)c(N2CCOCC2)c1=O
metric: GI50
reported: 22.9 µM (inactive)

Consider the compound shown here: C=CCC1OC(C)(C)Oc2ccc(OCOCCOC)cc21 (stereo unspecified) What is its recorded GI50? > 100 µM (inactive)

Let us now turn to CC(=O)Nc1ccc(C2CC(c3ccc([N+](=O)[O-])cc3)=Nc3ccccc3S2)cc1 (stereo unspecified) 17.3 µM (inactive)

Let us now turn to CC(=O)OCC1=C2C(OC(=O)C(C)C)CC3(COC(C)=O)OC3/C=C\C3(C)OC3C2OC1=O (stereo unspecified) > 100 µM (inactive)
